- MEASURED_ON: T1, Human CD27 ECD truncated (ECD 1-121, cleavage site, His6) (human)
- T1 construct: also called human CD27 ECD with His Tag; CD27-His
- T1 chain: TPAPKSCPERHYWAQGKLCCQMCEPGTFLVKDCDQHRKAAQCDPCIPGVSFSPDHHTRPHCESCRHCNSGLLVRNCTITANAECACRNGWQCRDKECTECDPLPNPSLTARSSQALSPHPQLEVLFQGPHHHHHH
- TEST_NAME: ProteOn SPR, culture supernatants
pKd: −log10 of the molar value.
PROPERTY_MEASURED: pKd

{"BINDER": "M161 (antibody, human IgG4, V domains shown, also called H196,L218) VH: QVQLVQSGAEVKKPGASVKVSCKASGYAFSSSWMNWVRQAPGQGLEWMGRIYSGDGDTNYNGKFKGRVTMTRDTSTSTVYMELSSLRSEDTAVYYCARSDYYGDYGFAYWGQGTLVTVSS VL: DIQMTQSPSSLSASVGDRVTITCKASQSVDYFGDSLMNWYQQKPGKAPKLLIYAASNLESGVPSRFSGSGSGTDFTLTISSLQPEDFATYYCQQSNEDPYTFGQGTKVEIK", "PROPERTY_MEASURED": "pKd", "READING": 8.87}
{"BINDER": "M150 (antibody, human IgG4, V domains shown, also called H25,L218) VH: QVQLVQSGAEVKKPGASVKVSCKASGYAFSSSWMNWVRQAPGQGLEWMGRIYPGDGDTNYNGKFKGRVTMTRDTSTSTVYMELSSLRSEDTAVYYCARSDYYGDYGFAYWGQGTLVTVSS VL: DIQMTQSPSSLSASVGDRVTITCKASQSVDYFGDSLMNWYQQKPGKAPKLLIYAASNLESGVPSRFSGSGSGTDFTLTISSLQPEDFATYYCQQSNEDPYTFGQGTKVEIK", "PROPERTY_MEASURED": "pKd", "READING": 8.39}
